Where a name gives a salt, the structure may show the parent alone.
Measured melting point accompanies every entry in the list below.

Worked examples, 3 molecules total:
[[record]]
molecule = "O=C(O)Cn1nnnc1-c1c(Cl)c(Cl)cc2[nH]c(=O)c(=O)[nH]c12 (hydrate or solvate)"
result = "286 to 287 °C"

[[record]]
molecule = "Cn1ncnc1-c1c(Cl)c(Cl)cc2[nH]c(=O)c(=O)[nH]c12 (hydrate or solvate)"
result = "> 300 °C"

[[record]]
molecule = "COCc1nnc(-c2cccnc2)n1-c1c(Cl)c(C)cc2[nH]c(=O)c(=O)[nH]c12"
result = "229 to 231 °C"


# input Specify measured melting point for COC(=O)Cn1nnnc1-c1c(Cl)c(Cl)cc2[nH]c(=O)c(=O)[nH]c12 .
# output 281 to 283 °C

# input Give melting point for the following molecule: Cc1nnc(-c2ccccc2)n1-c1c(Cl)c(Cl)cc2[nH]c(=O)c(=O)[nH]c12 (as salt: HCl) (hydrate or solvate)
# output 274 to 276 °C

# input Let me know recorded melting point for COCc1nnc(-c2cccnc2)n1-c1c(C)c(Cl)cc2[nH]c(=O)c(=O)[nH]c12 , thanks.
# output > 300 °C

# input # return recorded melting point for entry O=c1[nH]c2cc(Cl)c(Cl)c(-c3ccncc3)c2[nH]c1=O
# output > 300 °C
